B1: PTPLAD1 (parent)
chain: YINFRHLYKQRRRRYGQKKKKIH

Variants of: B1
Experiment: protein stability index of a GFP-peptide fusion (GPS, HEK-293T) (PSI 1-6); higher = more stable;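 further: lentivirally expressed fusions sorted by FACS into six bins by GFP to DsRed ratio, PSI derived from sequencing read proportions per bin multiplied by bin number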
Conditions: c terminus: native
EXPERIMENTAL_READOUT: protein stability index
Hey, just send me the number, nothing else.

input: # return recorded protein stability index for input R12S
output: 2.18

input: Give recorded protein stability index. H23D
output: 2.09

input: Report protein stability index for R14I
output: 1.6

input: In one line, give reported protein stability index of the entry R11T .
output: 2.02

input: Supply measured protein stability index of I2A in your reply.
output: 2.7

input: Item K21T : provide protein stability index
output: 2.7

input: Please report the measured protein stability index for R5A
output: 2.93

input: Please give measured protein stability index of the following entry: G16S
output: 2.71

input: Please list protein stability index recorded for the variant K9Q
output: 1.92

input: Check the records and state protein stability index for G16W
output: 2.76

input: Report protein stability index, nothing else, for this variant: K21H
output: 1.94

input: Using known records, supply protein stability index for I22S
output: 2.33

input: Give me measured protein stability index, please, for this variant: Y8W
output: 2.9

input: Look up and report measured protein stability index for this entry: K21N
output: 2.27

input: Recall and state the measured protein stability index for K20Q .
output: 1.46

input: Tell me measured protein stability index for G16H please.
output: 1.35

input: Quickly give me recorded protein stability index for I22V
output: 1.41

input: Supply measured protein stability index of K19P in your reply.
output: 1.95

input: Give recorded protein stability index. Y15R
output: 2.85

input: Give the reported value of protein stability index for this record: F4S
output: 3.2

input: # return recorded protein stability index for entry K9E
output: 2.03

input: Let me know recorded protein stability index for Y15S , thanks.
output: 1.74
